B1: SERPINB5 (parent)
chain: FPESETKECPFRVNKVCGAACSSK

variants of: B1; experiment: protein stability index of a GFP-peptide fusion (GPS, HEK-293T) (PSI 1-6); higher = more stable; settings: c terminus: a fixed tail appended;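 further: lentivirally expressed fusions sorted by FACS into six bins by GFP to DsRed ratio, PSI derived from sequencing read proportions per bin multiplied by bin number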
Observable: protein stability index
Format: numeric value only, no unit, no commentary.

Study these solved cases before continuing.
Request: # get_value(readout='protein stability index', item= FPESETKECPFRVNKVCGAACSSL [K24L] )
Result: 2.13

Request: # get_value(readout='protein stability index', item= FPESETKEHPFRVNKVCGAACSSK [C9H] )
Result: 1.83

Now, please, on to the next variant.
Request: # get_value(readout='protein stability index', item= FPESETKECPFRVNKVCGAHCSSK [A20H] )
Result: 2.58
